The reader will find reported selectivity ratio values listed item by item below.
assay: Selectivity ratio, HC50 for hemolytic activity in rabbit RBC to MIC for antibacterial activity against methicillin-resistant Staphylococcus aureus NCTC 10442; format: toxicity; settings: rabbit red blood cells

Examples with answers:
| SMILES STRUCTURE | selectivity ratio |
| --- | --- |
| CCCCCCCCC(=O)NCc1ccc(OCCCCCCNC(=N)N)c(OC)c1 | > 64 |
| CCCCCCCCC(=O)NCc1ccc(OCCCNC(=N)N)c(OC)c1 | > 8 |
| CCCCCCCCC(=O)NCc1ccc(OCCCCCCCCCCNC(=N)N)c(OC)c1 | > 32 |
| CCCCCCCCC(=O)NCc1ccc(OCCCCCCCCNC(=N)N)c(OC)c1 | > 128 |
| COc1cc(CNC(=O)CCCC/C=C/C(C)C)ccc1OCCCCNC(=N)N | > 32 |

Would you kindly look at the next entry?
Q) Give selectivity ratio for the following molecule: CCCCCCCCC(=O)NCc1ccc(OCCCCCCNC(=N)N)c(OCCCCCCNC(=N)N)c1
A) 173

====

test system: Escherichia coli; assay: Antibacterial activity against Escherichia coli ATCC 25922 assessed as inhibition of visible growth measured after 18 to 24 hrs by broth dilution method; format: functional; details: time 18-24 hrs
# maps each entry to its MIC

| COMPOUND | MEASURED ON | MIC |
| --- | --- | --- |
| CCCCCCCCC(=O)NCc1ccc(OCCCCNC(=N)N)c(OC)c1 | Escherichia coli | > 50 µg/mL |
| COc1cc(CNC(=O)CCCC/C=C/C(C)C)ccc1O [CAPSAICIN] | Escherichia coli | > 50 µg/mL |
| CCCCCCCCC(=O)NCc1ccc(OCCCCCCNCCN(CCNC(=N)N)CCNC(=N)N)c(OCCCCCCNCCN(CCNC(=N)N)CCNC(=N)N)c1 | Escherichia coli | 12.5 µg/mL |
| CCCCCCCCC(=O)NCc1ccc(OCCCCCCNCCN(CCN)CCN)c(OC)c1 | Escherichia coli | > 50 µg/mL |
| CCCCCCCCC(=O)NCc1ccc(OCCCCCCN)c(OC)c1 | Escherichia coli | > 50 µg/mL |

Q) Using the record for CCCCCCCCC(=O)NCc1ccc(OCCCCNC(=N)N)c(OCCCCNC(=N)N)c1 , state its measured MIC.
A) 50 µg/mL

Q) Report measured MIC; entry is CCCCCCCCC(=O)NCc1ccc(OCCCCNCC)c(OC)c1
A) > 50 µg/mL

Q) Read off the recorded MIC for CCCCCCCCC(=O)NCc1ccc(OCCCCCCNC(=N)N)c(OC)c1
A) > 50 µg/mL

Q) Kindly indicate its recorded MIC. Item: CCCCCCCCC(=O)NCc1ccc(OCCCCCCCCNC(=N)N)c(OC)c1
A) > 50 µg/mL

====

assay: Selectivity ratio, HC50 for hemolytic activity in rabbit RBC to MIC for antibacterial activity against methicillin-resistant Staphylococcus aureus NCTC 10442; type: toxicity; settings: rabbit red blood cells
Reported selectivity ratio values are given for each entry in this list.

Q) Find the measured selectivity ratio of COc1cc(CNC(=O)CCCC/C=C/C(C)C)ccc1OCCCCCCNC(=N)N and report it.
A) > 32

Q) Return reported selectivity ratio. Input compound: CCCCCCCCC(=O)NCc1ccc(OCCCCNC(=N)N)c(OCCCCNC(=N)N)c1
A) > 32

Q) Identify measured selectivity ratio corresponding to CCCCCCCCC(=O)NCc1ccc(OCCCCCCNCCN(CCNC(=N)N)CCNC(=N)N)c(OCCCCCCNCCN(CCNC(=N)N)CCNC(=N)N)c1
A) > 128

Q) Fill in selectivity ratio for record CCCCCCCCC(=O)NCc1ccc(OCCCCNC(=N)N)c(OC)c1
A) > 16
